A collection of molecules and their measured IC50
System: human MCF7 breast tumour cells
Experiment: MCF7 proliferation assay
Format: cell-based
Condition Set: MCF7, 96 h, 4 days incubation, crystal violet staining
Reported Property: IC50 (nM)

| Item Smiles | Reported Result |
| --- | --- |
| C[C@@H](O)[C@@H](C)Nc1nc(Nc2ccc(NC(=O)N=S(C)(C)=O)cc2)ncc1Br | 160 |
| C[C@@H](O)[C@@H](C)Nc1nc(Nc2ccc(F)c(NC(=O)N=S(C)(C)=O)c2)ncc1Br | 500 |
| COc1cc(Nc2ncc(Br)c(N[C@H](C)[C@@H](C)O)n2)ccc1NC(=O)N=S(C)(C)=O | 990 |
| COc1ccc(Nc2ncc(Br)c(N[C@H](C)[C@@H](C)O)n2)cc1NC(=O)N=S(C)(C)=O | 650 |
| C[C@@H](Nc1nc(Nc2cccc(NC(=O)N=S(C)(C)=O)c2)ncc1Br)C(C)(C)O | 400 |
| Cc1ccc(Nc2ncc(Br)c(N[C@H](C)[C@@H](C)O)n2)cc1NC(=O)N=S(C)(C)=O | 700 |
| C[C@@H](Nc1nc(Nc2ccc(NC(=O)N=S(C)(C)=O)cc2)ncc1Br)C(C)(C)O | 500 |
| C[C@@H](O)[C@@H](C)Oc1nc(Nc2ccc(NC(=O)N=S(C)(C)=O)cc2)ncc1Br | 140 |
| C[C@@H](O)[C@@H](C)Oc1nc(Nc2ccc(C(=O)N=S(C)(C)=O)cc2)ncc1Br | 310 |
| C[C@@H](Nc1nc(Nc2ccc(C(=O)N=S(C)(C)=O)cc2)ncc1Br)C(C)(C)O | 250 |
| C[C@@H](O)[C@@H](C)Nc1nc(Nc2cccc(NC(=O)N=S(C)(C)=O)c2)ncc1Br | 160 |
| C[C@@H](O)[C@@H](C)Nc1nc(Nc2cccc(C(=O)N=S(C)(C)=O)c2)ncc1Br | 380 |
| C[C@@H](O)[C@@H](C)Nc1nc(Nc2ccc(NC(=O)N=S(C)(C)=O)cc2)ncc1C(F)(F)F | 530 |
| C[C@@H](O)[C@@H](C)Nc1nc(Nc2ccc(C(=O)N=S(C)(C)=O)cc2)ncc1Br | 140 |
| CS(C)(=O)=NC(=O)Nc1ccc(Nc2ncc(Br)c(Nc3ccc4[nH]cnc4c3)n2)cc1 | 2100 |
| C[C@@H](O)[C@@H](C)Nc1nc(Nc2ccc(Cl)c(NC(=O)N=S(C)(C)=O)c2)ncc1Br | 860 |
| C[C@@H](O)[C@@H](C)Oc1nc(Nc2cccc(NC(=O)N=S(C)(C)=O)c2)ncc1Br | 150 |

The reported numbers originate from patent US20080167330A1.
